test name: NCI Yeast Anticancer Drug Screen. Data for the rad50 strain (AID 155);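 note: 0% = growth of vehicle-only cultures of the same strain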
condition details: S. cerevisiae rad50 strain growth inhibition; at 33.0 µM; hits give high values
Compounds without any hit were thinned out: in the full panel of roughly 79,000, 15% have a hit.
# key: entry, value: growth inhibition
Reply numerically in %, unit not repeated.

# annotated cases, reported growth inhibition shown
| compound | growth inhibition (%) |
| --- | --- |
| c1ccc2c(c1)ccn2CCc1c[nH]c2ccccc12 | 34 |
| O=C1Oc2ccccc2C(=O)/C1=C/N1C(=O)N/C(=C\c2ccccc2Br)C1=O | 40 |
| NC(=S)N1N=C2c3ccccc3CC[C@H]2[C@@H]1c1ccc(Cl)cc1 | 36 |

Incoming: Looking for the measured growth inhibition of CN1C(=O)C(CC(=O)O)NC1=S (centres undefined) , can you help?
Outgoing: 9

---

# key: entry, value: growth inhibition
test name: NCI Yeast Anticancer Drug Screen. Data for the rad50 strain (AID 155);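 note: 0% = growth of vehicle-only cultures of the same strain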
condition details: S. cerevisiae rad50 strain growth inhibition; at 3.7 µM; hits give high values
The panel holds about 79,000 compounds, 15% with a hit somewhere; the sample as a whole holds those more often.
Reply numerically in %, unit not repeated.

| compound | unit symbol | growth inhibition |
| --- | --- | --- |
| COc1ccc2nc3cccc([N+](=O)[O-])c3c(NCCCCCC(=O)O)c2c1 | % | 94 |
| CC1(C)OC(=O)C(=Cc2ccc([N+](=O)[O-])s2)C(=O)O1 | % | -7 |

Incoming: Looking for the measured growth inhibition of C[n+]1c(-c2ccc(/C=N/NC(=O)c3ccc(C(=O)N/N=C/c4ccc(-c5cn6ccccc6[n+]5C)cc4)cc3)cc2)cn2ccccc21 , can you help?
Outgoing: 10

Incoming: What would you report for CC(C)CCC[C@@H](C)[C@H]1CC[C@H]2[C@@H]3CC[C@H]4C[C@H](N)CC[C@]4(C)[C@H]3CC[C@]12C ?
Outgoing: 4

Incoming: What would you report for CC(CN(C)C)C(=O)/C=C/c1ccc(Cl)c(Cl)c1 (stereo unspecified) ?
Outgoing: -3

---

test name: NCI Yeast Anticancer Drug Screen. Data for the CLN2oe strain (AID 163);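 note: 0% = growth of vehicle-only control cultures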
condition details: S. cerevisiae CLN2oe strain, at 11.0 µM, hits give high values
About 79,000 compounds went through this panel and 15% of them were active in at least one assay; those are over-represented in the sample as a whole.
We use 40% as the dividing line for growth inhibition: on or above the line is met, below is not met.

Use the examples below as a reference point.
| molecule | classification |
| --- | --- |
| Cc1cccc2c1C1c3c(C)cccc3C(CC(=O)O)CC1CC2 (stereo unspecified) | met |
| Nc1ccc2cc(Br)ccc2c1Br | not met |
| Cc1ccc(S(=O)(=O)NC(=O)C2C(=O)CC3(CCCCC3)CC2=O)cc1 | not met |

Incoming: Does growth inhibition meet or surpass 40% for CCC[CH2][Ge]([CH2]CCC)([CH2]CCC)[O]C(=O)C(O)c1ccccc1 (stereo unspecified) ?
Outgoing: not met

Incoming: What would you report for COc1cc2c(cc1OC)[C@@H](Nc1ccc(C#N)cc1)C1COC(=O)[C@@H]1C2c1cc(OC)c(O)c(OC)c1 (stereo partly specified) ?
Outgoing: not met

---

test name: NCI Yeast Anticancer Drug Screen. Data for the rad50EPP+ strain (AID 151);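 note: 0% = growth of vehicle-treated control cultures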
condition details: S. cerevisiae rad50 mutant strain, at 33.0 µM
Description: Growth inhibition of yeast strains with defined genetic alterations is measured as a screen for potential anti-cancer activity. Selected strains with alterations in DNA damage repair or cell cycle control were exposed to compounds and growth inhibition was measured relative to vehicle treated controls. The strain used in this assay is rad50EPP+
This is part of a sample that, as a whole, favours compounds with a hit. Of some 79,000 tested, about 15% had one in any assay. Active and inactive are the calls of the source. Rule as the data show it: active = growth inhibition above about 70%; inactive = the rest.
Return exactly one item of 1 for active, 0 for inactive

Use the examples below as a reference point.
| structure string | classification |
| --- | --- |
| CC1=CC(=C(c2ccc(N)c(C)c2)c2ccc(N)c(C)c2)C=CC1=N | 0 |
| Nc1ccc(N=Nc2ccc(-c3ccc(O)cc3)cc2)c2ccc(S(=O)(=O)O)cc12 | 1 |

Incoming: Hello, I am checking results. What call was entered for CN(C)CCNCCCNc1c2ccccc2nc2cccc([N+](=O)[O-])c12 ?
Outgoing: 1

Incoming: What would you report for COC(=O)c1ccccc1N=NNc1cccc(SC)c1 ?
Outgoing: 0

Incoming: What would you report for CN1CCN(C(=O)c2cccc3cccc(C(=O)O)c23)CC1 ?
Outgoing: 0

Incoming: What would you report for N#[N+]c1c([O-])c2ccccc2c2ccccc12 ?
Outgoing: 1

Incoming: What would you report for CN(CCOc1ccc(Cl)cc1)CCOc1ccc(Cl)cc1 ?
Outgoing: 0

---

# key: entry, value: growth inhibition
test name: NCI Yeast Anticancer Drug Screen. Data for the CLN2oe strain (AID 163);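 note: 0% = growth of vehicle-only control cultures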
condition details: S. cerevisiae CLN2oe strain, at 1.2 µM, hits give high values
The panel holds about 79,000 compounds, 15% with a hit somewhere; the sample as a whole holds those more often.
Reply numerically in %, unit not repeated.

| molecule | unit symbol | growth inhibition |
| --- | --- | --- |
| COc1ccc2c3c1OC(C)C31CC(=O)CCC1CC2 (centres undefined) | % | -2 |
| O=C1c2cccc3cccc(c23)C(=O)N1O | % | 6 |
| O=S(=O)(NC1CCCC(c2ccccc2)C1)c1ccccc1 (centres undefined) | % | -4 |
| CSC(=S)N/N=C/c1ccccc1 | % | -3 |
| CCCCCCCCCCCCCCCCCCNc1nc(=O)n(C2CC(OP(=O)(O)OCC3OC(n4cc(F)c(=O)[nH]c4=O)CC3O)C(CO)O2)cc1F (centres undefined) | % | -23 |
| CCC(C)COC(=O)Nc1cccc(Cl)c1 (centres undefined) | % | 0 |
| CCC(=O)Nc1ccc(N=NN(C)C)cc1 | % | -11 |
| O=c1c2ccccc2nc(-c2ccc(Cl)cc2)n1O | % | 21 |

Incoming: Looking for the measured growth inhibition of N#[N+]c1c([O-])c2ccccc2c2ccccc12 , can you help?
Outgoing: 4

Incoming: What would you report for O=[N+]([O-])c1cn[n+]([O-])c2ccccc12 ?
Outgoing: 0

Incoming: What would you report for CC12CCC(CC(=O)/C1=C(/Br)I)C2(C)C (centres undefined) ?
Outgoing: -1

---

test name: NCI Yeast Anticancer Drug Screen. Data for the mgt1 strain (AID 153)
condition details: S. cerevisiae mgt1 mutant growth inhibition; at 33.0 µM; hits give high values
About 79,000 compounds went through this panel and 15% of them were active in at least one assay; those are over-represented in the sample as a whole.
reported metric: growth inhibition (%)
Reply numerically in %, unit not repeated.

# annotated cases, reported growth inhibition shown
| molecule | unit symbol | growth inhibition |
| --- | --- | --- |
| CCCN=Cc1cc(Cc2ccc(O)c(C=NCCC)c2)ccc1O | % | 98 |
| CCOC(=O)C(Cc1c2ccccc2cc2ccccc12)(NC(C)=O)C(=O)OCC | % | -18 |
| CCCCCCCCCCCCCCCCCCNC(=S)/N=C/c1c(O)c2ccccc2[nH]c1=O | % | 1 |
| Cc1cccc2c(NCCCN(C)C)c3c([N+](=O)[O-])ccc(C)c3nc12 | % | 98 |
| CC1=CN2C(c3ccccc3)=NON(c3ccc(C)cn3)C2C=C1 (centres undefined) | % | -1 |

Incoming: Looking for the measured growth inhibition of O=[N+]([O-])c1cc[n+]([O-])c(Cl)c1 , can you help?
Outgoing: 99

Incoming: What would you report for O=S(=O)(NNc1ccccc1)c1ccccc1 ?
Outgoing: 14

Incoming: What would you report for CCOC(=O)CC1(C)/C(=N\Nc2ccc([N+](=O)[O-])cc2[N+](=O)[O-])CCC2C1CCC1(C)C(C(C)CCCC(C)C)CCC21 (centres undefined) ?
Outgoing: -1

Incoming: What would you report for O=C(C(Cl)=C(N1CCCCC1)N1CCCCC1)C(Cl)Cl ?
Outgoing: -3

---

test name: NCI Yeast Anticancer Drug Screen. Data for the rad14 strain (AID 159);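 note: 0% = growth of vehicle-treated control cultures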
condition details: S. cerevisiae rad14 strain growth inhibition; at 100.0 µM; hits give high values
This is part of a sample that, as a whole, favours compounds with a hit. Of some 79,000 tested, about 15% had one in any assay.
reported metric: growth inhibition (%)
Reply numerically in %, unit not repeated.

| compound | value |
| --- | --- |
| NC(CCCCCCCCCCCCC(N)C(=O)c1ccccc1)C(=O)c1ccccc1 (centres undefined) | 96 |

Incoming: Looking for the measured growth inhibition of Cc1c2c(nc3ccccc13)C(=O)c1cccnc1C2=O , can you help?
Outgoing: 81

Incoming: What would you report for CC(C(=O)N1C(=O)N(C(=O)C(C)C(O)c2ccccc2)C2CCCCC21)C(O)c1ccccc1 (centres undefined) ?
Outgoing: 20

Incoming: What would you report for CN(C)CCNc1ccc2ncn3c4ccc(O)cc4c(=O)c1c23 ?
Outgoing: -23
